assay system: AURKA (Aurora A) (Homo sapiens, UniProt O14965)
Sequence (O14965 1-403): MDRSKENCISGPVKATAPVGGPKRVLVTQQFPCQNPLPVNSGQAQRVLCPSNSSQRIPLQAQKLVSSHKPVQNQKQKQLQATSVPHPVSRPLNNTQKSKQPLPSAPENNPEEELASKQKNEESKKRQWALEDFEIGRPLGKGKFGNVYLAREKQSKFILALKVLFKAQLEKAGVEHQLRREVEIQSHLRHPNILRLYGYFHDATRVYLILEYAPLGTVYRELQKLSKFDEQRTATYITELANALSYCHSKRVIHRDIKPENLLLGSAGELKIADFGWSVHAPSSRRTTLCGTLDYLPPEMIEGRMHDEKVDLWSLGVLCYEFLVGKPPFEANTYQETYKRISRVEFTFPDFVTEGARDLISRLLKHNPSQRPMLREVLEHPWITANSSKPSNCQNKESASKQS
measurement notes: FRET-based coupled-enzyme protein kinase inhibition assay
Type: biochemical
condition parameters: compound at 10 µM, 1% DMSO
experimental readout: inhibition at 10 µM
Answers without a unit are incomplete; give the number and then its unit.

Incoming: Specify reported inhibition at 10 µM for the molecule shown: `Nc1ncnc2c1ncn2[C@@H]1O[C@H](COC(=O)NCCCc2nc3ccccc3[nH]2)[C@@H](O)[C@H]1O`
Outgoing: 9%

Incoming: Specify reported inhibition at 10 µM for the molecule shown: `CN(C)CCNC(=O)OC[C@H]1O[C@@H](n2cnc3c(N)ncnc32)[C@H](O)[C@@H]1O`
Outgoing: -11%

Incoming: Specify reported inhibition at 10 µM for the molecule shown: `CN1CCN(CCNC(=O)OC[C@H]2O[C@@H](n3cnc4c(N)ncnc43)[C@H](O)[C@@H]2O)CC1`
Outgoing: 3%

Incoming: Specify reported inhibition at 10 µM for the molecule shown: `Nc1ncnc2c1ncn2[C@@H]1O[C@H](COC(=O)N2CCN(CCc3ccccc3)CC2)[C@@H](O)[C@H]1O`
Outgoing: 1%

Incoming: Specify reported inhibition at 10 µM for the molecule shown: `C[C@@H](NC(=O)OC[C@H]1O[C@@H](n2cnc3c(N)ncnc32)[C@H](O)[C@@H]1O)c1ccc(Cl)cc1`
Outgoing: 8%

Incoming: Specify reported inhibition at 10 µM for the molecule shown: `Nc1ncnc2c1ncn2[C@@H]1O[C@H](COC(=O)NCCN2CCCC2=O)[C@@H](O)[C@H]1O`
Outgoing: 5%

src = patent EP3212201B1
